# target or test system: Epithelial discoidin domain-containing receptor 1 (Homo sapiens, UniProt Q08345); further: in the data inactive means no Kd found up to 30 µM
# Sequence (Q08345 whole entry, the tested form may be a part): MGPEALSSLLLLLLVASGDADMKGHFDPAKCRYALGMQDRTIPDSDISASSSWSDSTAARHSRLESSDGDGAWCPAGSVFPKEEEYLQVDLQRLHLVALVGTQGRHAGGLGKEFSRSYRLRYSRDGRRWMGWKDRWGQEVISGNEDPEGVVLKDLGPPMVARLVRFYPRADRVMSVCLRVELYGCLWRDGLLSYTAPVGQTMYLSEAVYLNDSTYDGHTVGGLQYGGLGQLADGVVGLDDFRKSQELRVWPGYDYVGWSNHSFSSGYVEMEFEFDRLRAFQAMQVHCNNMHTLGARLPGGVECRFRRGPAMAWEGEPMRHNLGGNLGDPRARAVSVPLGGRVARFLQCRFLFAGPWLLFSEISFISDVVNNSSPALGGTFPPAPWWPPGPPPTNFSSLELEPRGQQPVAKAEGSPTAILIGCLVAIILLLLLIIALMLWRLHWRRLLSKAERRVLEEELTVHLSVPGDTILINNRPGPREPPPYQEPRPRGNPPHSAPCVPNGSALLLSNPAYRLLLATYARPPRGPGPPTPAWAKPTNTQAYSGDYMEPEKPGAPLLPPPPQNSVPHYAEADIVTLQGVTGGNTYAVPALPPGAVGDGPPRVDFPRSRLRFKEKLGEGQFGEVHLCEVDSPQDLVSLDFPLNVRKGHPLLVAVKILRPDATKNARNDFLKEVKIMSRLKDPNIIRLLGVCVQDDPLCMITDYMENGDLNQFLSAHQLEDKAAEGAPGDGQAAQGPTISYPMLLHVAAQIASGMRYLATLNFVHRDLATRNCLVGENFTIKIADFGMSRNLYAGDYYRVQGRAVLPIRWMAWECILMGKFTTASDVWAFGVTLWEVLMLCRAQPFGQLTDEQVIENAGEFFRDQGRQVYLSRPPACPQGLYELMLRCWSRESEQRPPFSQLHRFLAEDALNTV
The source made the active and inactive calls.
Outcomes: active, inactive

compound="CC(=O)NCC(=O)N1[C@@H]2CC[C@H]1c1ccc(Nc3ncc(C(F)(F)F)c(NC4CCC4)n3)cc12 [PF-03814735]" class_assignment=inactive
compound="COc1cc(Nc2ncc3c(n2)-c2ccc(Cl)cc2C(c2c(F)cccc2OC)=NC3)ccc1C(=O)O [ALISERTIB]" class_assignment=inactive
compound=CC(=O)c1cnc2ccc(-c3cc(Cl)c(O)c(Cl)c3)nc2c1N[C@H]1CC[C@H](CN(C)C)CC1 class_assignment=active
compound="O=C(Cc1ccc(-c2ccc(OCCN3CCOCC3)cc2)cn1)NCc1ccccc1 [TIRBANIBULIN]" class_assignment=inactive

Hello, the source for this data is ChEMBL document CHEMBL3991601, in case you need it.
